Assay: yeast display, Sf9 membrane polyspecificity reagent, FACS + sequencing; frameworks hold sequencing errors
readout-name: polyreactivity (PSR sort gate)

See these solved cases before continuing.
{"seq-string": "QVQLVESGGGLVQAGGSLRLSCAASGSIFESYAMGWYRQAPGKERELVASISGGGSTYYADSVKGRFTISRDNAKNTVYLQMNSLKPEDTAGYYCATVYVRYRQSRLIRYGYWGQGTQVTVSS", "polyreactivity (PSR sort gate)": "high polyreactivity"}
{"seq-string": "QVQLVESGVRLVQAGGSLRLSCAASGFNFRRYAMGWYRPAPGKERELVAAISWRSGSTYYADSVKGRFTISRDNAKNTVYLQMNSLKPEDTAVYYCAAKDQATYQLNYWGQGTQVTVSS", "polyreactivity (PSR sort gate)": "high polyreactivity"}
{"seq-string": "QFQLVESGGGLVQAGGSLRLSCAASGRIFGPYAMGWYRQAPGKERELVASISGGGSTNYADSVKGRFTISRDNAKNTVYLQMNSLKPEDTAVYYCAADVYYQYWGWWPYDYWGQGTQVTESS", "polyreactivity (PSR sort gate)": "low polyreactivity"}
{"seq-string": "QVQLVESGGGLVQAGGSLRLSSAASGFTYYFYAMGWYRQAPGKERELVAGISTSGTSTYYADSVKGRFTISRDNAKNTVYFQMNRLKPEDTAVSYCAKRGDAIVPTSSKGNYWGQGTQVTVSS", "polyreactivity (PSR sort gate)": "low polyreactivity"}
{"seq-string": "QVQLVESGGGLVQAGGSLRLSCAPSGSIFRYYAMGWYRQAPGKERELVAAISWSGTSTYYADSVKGRFTISRDNAKNTVYLQMNSLKPEDTAVYYCNKVIPANIRRSYDYWGQGTQVTVSS", "polyreactivity (PSR sort gate)": "high polyreactivity"}

-- ask What measured polyreactivity (PSR sort gate) goes with QVQLVESGGGLVQAGGSLRLSCAASGSTFKYYVMGWYRQAPGKERELVAAISGRTGSTYYADSVKGRFTISRDNAKNTVYLQMNSLKPEDTAVYYCAKRGFLYWDHVSGFYRYDYWGQGTQVTVSS ?
-- reply low polyreactivity

-- ask Next: QVQLVESGAGIVQAGGSLRLSCAASGLTFKVYAMGWYRQAPGKERELVAAISWSGGSTYYADSVKGRFTISRDNAKNTGYLQRNSLKPEDTAVYYCAVEPSYYVVFFQYDYWGQGTQVTVSS
-- reply low polyreactivity

-- ask Please answer likewise for QVQLVESGGGLVQAGGSLRLSCAASGFTFGYYAMGWYRQAPGKERELVAAITYDGDITYYADSVKGRFTISRDNAKNTVYLQMNSLKPEVTAVYYCNRDVLTFNYDYWGQGTQVTVSS
-- reply low polyreactivity

-- ask Here is the next sequence: QVQLVESGGGLVQAGGSLRLSCAASGSIFTRNTMGWYRQAPGKERELVAAITSSGGSTYYADSVKGRFTISRDTAKNTVYLQMNSLKPEDTAVYYCAADVGVYYYSFYYWGQGTQVTVSS
-- reply high polyreactivity

-- ask And PVQLVESGGGLVQAGGSLRLSCPASGRILVGNAMGWYRQAPGKERELVAALTSSGDSTNYADSVKGRFTISRDNAKNTVYLQMNSLKPEDTAVYYCAAGSFGTSGFSDVIWEGDYWGQGTQVTVSS ?
-- reply low polyreactivity

----------
Test: yeast display, Sf9 membrane polyspecificity reagent, FACS + sequencing; frameworks hold sequencing errors
readout-name: polyreactivity (PSR sort gate)

{"seq-string": "QVQLVESGGGLVQAGGSLRLSCAASGSIFNRYAMGWYRPAPGKERELVAAISRSGGRTYYADSVKGRFTISRDNAKNTVYLQMNSLKPEDTAVYYCAADKYYRQHEFDYWGQGTQVTVSS", "polyreactivity (PSR sort gate)": "high polyreactivity"}
{"seq-string": "QVQLVESGGGLVQAGGSLRLSCAASGFISYYYAMGWYRQAPGKERELVAAITKSGGSTYYADSVKGRFTIARDNAKNTVSLQMNSLKPEDTAVYYCAAVRSTRNSTSRLYGYWGQGTQVTVSS", "polyreactivity (PSR sort gate)": "low polyreactivity"}
{"seq-string": "QVQLVESGGGLVQAGGSLRLSCAASGSIFGLYAMGWYRQAPGKERELVAAINQSGGSTSYADSVKGRFTISRDTAKNTVYLQMNSLKPEDTAVYYCAVAIVTSGPFPRDYWGQGTQVTVSS", "polyreactivity (PSR sort gate)": "low polyreactivity"}
{"seq-string": "QVQLVESGGGLVQAGGSLRLTCAASGFIYYYNAMGWYRQAPGKERQLVAAISASGDRTYYADSVKGRFTISRDNAKNTVYLQMNSLKPEDTAVYYCAARSQGARYSSRRRFGDYWGQGTQVTVSS", "polyreactivity (PSR sort gate)": "high polyreactivity"}
{"seq-string": "QVQLVESGGGLVQAGGSLRLSCAASGRIFRLYAMGWYRQAPGKERELVATITSGGTYYADSVKGRFTISRDNAKNTVYLQMNSLKPEDTAVYYFAAVVYPGYVGSQEYDYWGQGTQVTVSS", "polyreactivity (PSR sort gate)": "low polyreactivity"}

-- ask Please report the recorded polyreactivity (PSR sort gate) for QVQLVESGGGLVQAGGSLRLTCAASGFTFYRNTMGWYRQAPGKERELVAAITQRGGSTYYADSVKGRFTISRDNAKNTVYLQMNSLKPEDTAVYYCNRDVKVLYASSHSPYGYDHWGQGTQVTVSS .
-- reply low polyreactivity

-- ask Same lookup for QVQLVESVGGLVQAGGSLRLSCAASGRTFPYYAKGGYRQAPWKERELVATISSGGITNYADSVKVRFTISRDNAKNTVYLQMNSLKPEDTAVYYCAADRHWSAGLWRYDYWGQGTQVTVSS , please.
-- reply high polyreactivity

-- ask Try this sequence too: QVQLVESGGGLVQAGGSLRLSCAASGFTLRYYAMGWYRQAPGKERELVATINRSGASTYYADSVKGRFTISRDNAKNTVYLQMNRLKPEDTAVYYCNTATSRAYRYDYWGQGTQVTVSS
-- reply high polyreactivity

-- ask Repeat with QVQLVETGGGLVQAGGSLRLSCAASGFTFGANVMGWYRPAPGKESELVAGITRSGDSTYYADSVKGRFTISRDNAKNTVYLQMNILKPEDTAVYYCAADVYDGEYILDYDYWGQGTQVTVSS
-- reply low polyreactivity

-- ask How about this sequence: QVQLVESGGGLVQAGGSLRLSCAASGRIFNEYGMGWYRQAPGKERELVAAITDGTTTYYADSVKGRFTISRDNAKNTVYLQMNSLKPEDTAVYYCAASSTWYGYYIFVFRAYDYWGQGTQVTVSS
-- reply low polyreactivity

-- ask Then what about the sequence QVQLVESGGGLVQAGGSLRLSCAASGRTFTEYAMGWYSQAHGKERELVARISIGDSTYYADSVKGRFTISRDNAKNTVYLQMNSLKPEDTAVFYCNAEYSRSYRYDEGYWGQGTQVTVSS ?
-- reply low polyreactivity

-- ask Record: QVQLVESGGGLVQAGGSLRLSCAASGSTFGPYALGWYRQAPGKERELVAAIDKSGGSTYYADSVKGRFTISRDNAKNTVYLQMNSLKPEDTAVYYCAADMLRYFGYYDYDSWGQGTQVTVSS
-- reply low polyreactivity
